- System: native human MET on living human cells (human, UniProt P08581 25-1390)
- Sequence (P08581 25-1390): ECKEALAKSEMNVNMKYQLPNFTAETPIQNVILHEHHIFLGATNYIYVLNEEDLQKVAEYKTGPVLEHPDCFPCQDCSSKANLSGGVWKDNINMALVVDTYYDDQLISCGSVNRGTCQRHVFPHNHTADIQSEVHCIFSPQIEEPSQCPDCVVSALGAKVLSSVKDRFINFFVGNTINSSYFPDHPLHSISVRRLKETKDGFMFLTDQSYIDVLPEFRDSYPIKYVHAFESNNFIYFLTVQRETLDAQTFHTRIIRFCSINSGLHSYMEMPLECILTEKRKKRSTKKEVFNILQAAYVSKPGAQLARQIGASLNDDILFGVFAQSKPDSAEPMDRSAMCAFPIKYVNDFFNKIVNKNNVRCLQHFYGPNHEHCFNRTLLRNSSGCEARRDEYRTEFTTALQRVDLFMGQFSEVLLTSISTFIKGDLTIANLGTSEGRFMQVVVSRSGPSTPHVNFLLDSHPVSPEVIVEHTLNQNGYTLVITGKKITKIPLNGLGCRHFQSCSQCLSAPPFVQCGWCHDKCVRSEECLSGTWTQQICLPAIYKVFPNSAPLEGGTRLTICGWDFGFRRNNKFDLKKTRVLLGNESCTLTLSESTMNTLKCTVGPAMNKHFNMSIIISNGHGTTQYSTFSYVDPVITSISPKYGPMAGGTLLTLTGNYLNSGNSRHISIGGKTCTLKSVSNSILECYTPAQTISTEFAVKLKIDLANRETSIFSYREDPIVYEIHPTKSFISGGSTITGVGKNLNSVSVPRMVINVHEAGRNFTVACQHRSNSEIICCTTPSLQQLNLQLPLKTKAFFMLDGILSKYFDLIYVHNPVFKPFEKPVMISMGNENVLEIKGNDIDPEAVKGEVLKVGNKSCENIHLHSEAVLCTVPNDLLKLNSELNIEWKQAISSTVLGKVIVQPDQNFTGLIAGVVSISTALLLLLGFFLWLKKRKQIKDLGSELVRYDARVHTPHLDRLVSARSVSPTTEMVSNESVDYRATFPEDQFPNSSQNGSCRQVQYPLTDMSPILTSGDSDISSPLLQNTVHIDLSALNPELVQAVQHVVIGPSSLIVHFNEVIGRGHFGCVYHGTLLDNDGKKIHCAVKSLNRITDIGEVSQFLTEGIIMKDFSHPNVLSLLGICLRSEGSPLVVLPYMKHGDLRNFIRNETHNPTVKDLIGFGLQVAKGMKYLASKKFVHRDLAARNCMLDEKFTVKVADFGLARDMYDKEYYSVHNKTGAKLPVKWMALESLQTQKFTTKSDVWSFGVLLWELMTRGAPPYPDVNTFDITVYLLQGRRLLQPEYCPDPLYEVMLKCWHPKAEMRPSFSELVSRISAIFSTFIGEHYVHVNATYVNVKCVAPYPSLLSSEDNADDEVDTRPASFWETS
- Test Method Notes: cell-based or functional assay
Readout: cell scattering score, HPAF-II, 0.004 nM

stdin: GET /values?readout=cell scattering score, HPAF-II, 0.004 nM&item= chimeric llama-human IgG1 mAb 71G12 (antibody, V domains shown) VH: QVQLQESGGDLVQPGGSLRVSCVVSGFTFSRYYMSWVRQAPGKGLEWVSSIDSYGYSTYYTDSVKGRFTISRDNAKNTLYLQMNSLKPEDTALYYCARAKTTWSYDYWGQGTQVTVSS VL: EIVLTQSPSSVTASVGGKVTINCKSSQSVFIASNQKTYLNWYQQRPGQSPRLVISYASTRESGIPDRFSGSGSTTDFTLTISSVQPEDAAVYYCQQAYSHPTFGQGTKVELK
stdout: 0 score 0-4

stdin: GET /values?readout=cell scattering score, HPAF-II, 0.004 nM&item= chimeric llama-human IgG1 mAb 71C3 (antibody, V domains shown) VH: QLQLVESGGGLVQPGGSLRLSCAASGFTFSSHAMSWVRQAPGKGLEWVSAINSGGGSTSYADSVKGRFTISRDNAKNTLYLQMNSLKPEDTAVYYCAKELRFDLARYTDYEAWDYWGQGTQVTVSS VL: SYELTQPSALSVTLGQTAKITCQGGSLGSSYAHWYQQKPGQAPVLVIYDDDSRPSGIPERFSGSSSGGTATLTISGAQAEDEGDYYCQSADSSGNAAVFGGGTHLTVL
stdout: 0 score 0-4

stdin: GET /values?readout=cell scattering score, HPAF-II, 0.004 nM&item= chimeric llama-human IgG1 mAb 72F8 (antibody, V domains shown) VH: ELQLVESGGGLVQPGGSLRLSCAASGFTFSNYVMSWVRQAPGKGLEWVSDTNSGGSTSYADSVKGRFTISRDNAKNTLYLQMNSLKPEDTALYYCARSFFYGMNYWGKGTQVTVSS VL: QSALTQPPSLSASPGSSVRLTCTLSSGNNIGSYDISWYQQKAGSPPRYLLNYYTDSRKHQDSGVPSRFSGSKDASANAGLLLISGLQPEDEADYYCSAYKSGSYRWVFGGGTHVTVL
stdout: 0 score 0-4

stdin: GET /values?readout=cell scattering score, HPAF-II, 0.004 nM&item= chimeric llama-human IgG1 mAb 71G2 (antibody, V domains shown) VH: EVQLQESGGGLVQPGGSLRLSCAASGFTFSIYDMSWVRQAPGKGLEWVSTINSDGSSTSYVDSVKGRFTISRDNAKNTLYLQMNSLKPEDTAVYYCAKVYGSTWDVGPMGYGMDYWGKGTLVTVSS VL: SSALTQPSALSVSLGQTARITCQGGSLGSSYAHWYQQKPGQAPVLVIYGDDSRPSGIPERFSGSSSGGTATLTISGAQAEDEDDYYCQSTDSSGNTVFGGGTRLTVL
stdout: 1 score 0-4

stdin: GET /values?readout=cell scattering score, HPAF-II, 0.004 nM&item= chimeric llama-human IgG1 mAb 71D6 (antibody, V domains shown) VH: ELQLVESGGGLVQPGGSLRLSCAASGFTFSSYGMSWVRQAPGKGLEWVSAINSYGGSTSYADSVKGRFTISRDNAKNTLYLQMNSLKPEDTAVYYCAKEVRADLSRYNDYESYDYWGQGTQVTVSS VL: QPVLNQPSALSVTLGQTAKITCQGGSLGARYAHWYQQKPGQAPVLVIYDDDSRPSGIPERFSGSSSGGTATLTISGAQAEDEGDYYCQSADSSGSVFGGGTHLTVL
stdout: 1 score 0-4

stdin: GET /values?readout=cell scattering score, HPAF-II, 0.004 nM&item= chimeric llama-human IgG1 mAb 71G3 (antibody, V domains shown) VH: QVQLVESGGGLVQPGGSLRVSCAASGFTFSTYYMSWVRQAPGKGLEWVSDIRTDGGTYYADSVKGRFTMSRDNAKNTLYLQMNSLKPEDTALYYCARTRIFPSGYDYWGQGTQVTVSS VL: QAVVTQEPSLSVSPGGTVTLTCGLSSGSVTTSNYPGWFQQTPGQAPRTLIYNTNSRHSGVPSRFSGSISGNKAALTIMGAQPEDEADYYCSLYPGSTTVFGGGTHLTVL
stdout: 0 score 0-4

stdin: GET /values?readout=cell scattering score, HPAF-II, 0.004 nM&item= chimeric llama-human IgG1 mAb 71D4 (antibody, V domains shown) VH: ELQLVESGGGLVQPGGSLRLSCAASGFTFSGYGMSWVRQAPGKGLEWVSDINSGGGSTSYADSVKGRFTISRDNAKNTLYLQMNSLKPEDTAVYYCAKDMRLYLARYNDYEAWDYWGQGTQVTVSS VL: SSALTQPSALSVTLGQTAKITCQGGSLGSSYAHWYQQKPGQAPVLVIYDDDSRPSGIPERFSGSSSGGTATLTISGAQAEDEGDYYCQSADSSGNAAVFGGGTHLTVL
stdout: 0 score 0-4

stdin: GET /values?readout=cell scattering score, HPAF-II, 0.004 nM&item= chimeric llama-human IgG1 mAb 71A3 (antibody, V domains shown) VH: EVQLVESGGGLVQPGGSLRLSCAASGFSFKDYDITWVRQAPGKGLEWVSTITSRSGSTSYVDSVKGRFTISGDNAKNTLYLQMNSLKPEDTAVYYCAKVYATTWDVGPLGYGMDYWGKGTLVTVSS VL: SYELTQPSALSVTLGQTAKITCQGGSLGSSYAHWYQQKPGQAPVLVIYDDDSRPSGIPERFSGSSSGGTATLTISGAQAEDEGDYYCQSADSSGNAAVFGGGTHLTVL
stdout: 0 score 0-4
